Target: T1, PUF4 RNA-binding domain (Saccharomyces cerevisiae, UniProt P25339 537-888)
T1 sequence: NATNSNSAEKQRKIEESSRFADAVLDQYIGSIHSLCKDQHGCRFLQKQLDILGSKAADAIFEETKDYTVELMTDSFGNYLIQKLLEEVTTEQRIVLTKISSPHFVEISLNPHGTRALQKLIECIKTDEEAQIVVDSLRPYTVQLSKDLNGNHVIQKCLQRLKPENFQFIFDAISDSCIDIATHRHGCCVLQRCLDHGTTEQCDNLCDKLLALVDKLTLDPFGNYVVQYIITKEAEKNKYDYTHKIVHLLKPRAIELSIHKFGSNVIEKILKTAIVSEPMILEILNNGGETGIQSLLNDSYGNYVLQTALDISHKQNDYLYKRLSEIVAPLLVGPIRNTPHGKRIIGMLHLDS
Assay: Mg; RNA-MaP; 20 mM Na-HEPES pH 7.4, 30 mM KOAc, 0.75 mM MgCl2, 0.1% Tween-20, 5% glycerol, 0.1 mg/mL BSA, 2 mM DTT; 25 C; 0.0125-409.6 nM protein
Conditions: tags: N-His6-TEV cleaved; C-SNAP kept, Cy3B-labelled; label: tethered on chip by stalled RNA polymerase
pKd: −log10 of the molar value.
READOUT LABEL: pKd

Solved cases below.
BINDER	READOUT LABEL	ASSAY RESULT
ACAAACUCACACUUAUUACGACAAAC (ssRNA) [Id_ii_S3_P5E.4_K5.3_C5.2_[C-2T]_[T-1C]_H5.3_A5.1_F5.1_T5.2_[T11C]_[A12G]]	pKd	< 5.64
UCUCUUCAACACUAUUAGUUCUCUU (ssRNA) [Id_ii_S1_P4E.4_K4.3_C4.2_[T-1A]_H4.3_A4.1_F4.1_T4.2]	pKd	< 5.64

Prompt: For the binder Id_ii_S2_P3E.2_K3.1_C3.2_[C-2T]_[T-1A]_H3.1_A3.1_F3.1_T3.2_[T9G]_[A10T] (ssRNA) RNA: UUUGAUUAAUAUGAUAUCGUUCUUUCUUAUGUAUAUAGUUUCUUUCUCGAUAUCAUAUUAAUCUUU , give its measured pKd value.
Completion: 8.15
